Values compiled from paper PMC7213754.

test method notes: Tariquidar pharmacokinetics in patients
Format: in vivo, human
condition label: human, plasma, iv, 150 mg, mean (±SD) clearance, 150 mg i.v.
readout: Clearance

Qu. State, in one line, measured Clearance of COc1cc2c(cc1OC)CN(CCc1ccc(NC(=O)c3cc(OC)c(OC)cc3NC(=O)c3cnc4ccccc4c3)cc1)CC2
Ans. 287 mL/min

###

test method notes: Tariquidar pharmacokinetics in patients
Format: in vivo, human
condition label: human, plasma, iv, 150 mg, Half-life, median, cycle 2, 150 mg i.v. over 30 min; 18 patients
readout: Half-life (h)
Numbers only, in h.

Qu. Please report the measured Half-life for COc1cc2c(cc1OC)CN(CCc1ccc(NC(=O)c3cc(OC)c(OC)cc3NC(=O)c3cnc4ccccc4c3)cc1)CC2 [tariquidar]
Ans. 33
